- subject_of_test: full length recombinant Pim-3 protein (Homo sapiens, UniProt Q86V86)
- Construct: by full length recombinant Pim-1, Pim-2, or Pim-3 protein
- experiment: Pim-3 enzyme assay (HTRF, phosphorylation of biotinylated-BAD (S112) peptide)
- experimental_parameters: read-out: Pim3 IC50
pIC50: −log10 of the molar value.
outcome_measure: pIC50

See these solved cases before continuing.
>>> df
                                   compound  endpoint_result
0  N[C@@H]1CCCN(c2cncc(-c3c[nH]c4ccc(-c5c(F)cccc5F)cc34)n2)C1             7.74
1  COc1ccc2c(-c3ccc4[nH]nc(-c5cncc(N6CCC(N)CC6)n5)c4c3)ccnc2c1             8.00
2  CC(C)Oc1cncc(-c2ccc3[nH]cc(-c4cccc(N)n4)c3c2)n1             6.81
3  COc1cc(OC)cc(-c2ccc3[nH]nc(-c4cncc(N5CCC(N)CC5)n4)c3c2)c1             8.70
4  Oc1nccc(-c2ccc3[nH]nc(-c4cncc(O[C@@H]5CCCNC5)n4)c3c2)n1             7.57

a = O=c1[nH]cncc1-c1ccc2[nH]nc(-c3cncc(O[C@@H]4CCCNC4)n3)c2c1
b = COc1ccc(F)c(-c2ccc3[nH]nc(-c4cncc(N5CCC(N)CC5)n4)c3c2)c1
Exercise: Sort a and b by pIC50 descending and give the first. I would appreciate it if you answered with the label of your choice.
Key: b
(b: 8.22, a: 7.80)

a = c1cc2[nH]nc(-c3cncc(O[C@@H]4CCCNC4)n3)c2cc1C1CCCOC1 (stereo partly shown)
b = Fc1ccccc1-c1ccc2[nH]nc(-c3cncc(O[C@@H]4CCCNC4)n3)c2c1
c = NC1CCN(c2cncc(-c3n[nH]c4ccc(-c5ccc6scnc6c5)cc34)n2)CC1
d = NC1CCN(c2cncc(-c3n[nH]c4ccc(-c5cc(C(=O)NCc6ccccc6)ccc5F)cc34)n2)CC1
e = NC1CCN(c2cncc(-c3c[nH]c4ccc(-c5ccccc5F)nc34)c2)CC1
Exercise: Sort by pIC50, descending. Write the labels, ordered according to the request.
Key: c, d, b, e, a
(c: 9.00, d: 8.70, b: 8.22, e: 7.54, a: 7.18)
